- Assay Target: L-lactate dehydrogenase (Plasmodium falciparum (isolate CDC / Honduras)) (UniProt Q27743)
- Sequence (Q27743 whole entry, looked up): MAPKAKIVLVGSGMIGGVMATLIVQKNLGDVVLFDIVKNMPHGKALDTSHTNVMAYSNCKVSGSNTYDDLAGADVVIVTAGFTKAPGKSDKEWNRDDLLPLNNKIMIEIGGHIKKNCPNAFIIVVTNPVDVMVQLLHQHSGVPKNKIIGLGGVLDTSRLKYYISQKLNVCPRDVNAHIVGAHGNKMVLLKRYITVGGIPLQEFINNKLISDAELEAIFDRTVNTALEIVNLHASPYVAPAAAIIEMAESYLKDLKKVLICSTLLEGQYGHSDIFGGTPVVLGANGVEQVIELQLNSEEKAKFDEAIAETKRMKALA
- Protocol Notes: PfLDH activity inhibition – cell lysate, 3D7 strain, counter-screen for P. falciparum growth inhibition project (AID 2304);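 also: 0% = vehicle and 100% = reference inhibitor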
- Conditions Used: P. falciparum 3D7 crude extract, LDH APAD/NBT absorbance; at 2 µM; hits give high values
Value Type: inhibition (%)
Value expressed in %; do not type the unit.

Please review the following examples before continuing.
[ask] Which inhibition is reported for this compound? CCN(CC)CCN(Cc1ccc(-c2ccc(C#N)cc2)cc1)C(=O)Cn1c(CCc2cccc(F)c2F)nc(=O)c2ccccc21
[reply] -1

[ask] Which inhibition is reported for this compound? CCC(C)Oc1ccc(CCCON2C(N)=NC(N)=NC2(C)C)cc1 (centres undefined)
[reply] -8

[ask] Which inhibition is reported for this compound? O=c1[nH]c(Cc2ccccc2)nc2ccc(Cl)cc12
[reply] 3

[ask] Which inhibition is reported for this compound? c1ccc2c(CNc3ccnc(NCc4cccc5ccccc45)n3)cccc2c1
[reply] 3

[ask] Which inhibition is reported for this compound? CC(C)Cn1c(Sc2ccc(C#N)c([N+](=O)[O-])c2)nnc1-c1ccc(N(C)C)cc1
[reply] 4

***
[ask] Which inhibition is reported for this compound? COc1ccc(NC(=O)c2ccc(OCCCCCCCOc3ccc(C(=O)Nc4ccc(OC)c(N5CCN(C)CC5)c4)cc3)cc2)cc1N1CCN(C)CC1
[reply] -5

[ask] Which inhibition is reported for this compound? Cc1cccc2[nH]c(-c3cccc(-c4cccc(NC(=O)C(C)CN(C)C)c4)c3)nc12 (centres undefined)
[reply] -3

[ask] Which inhibition is reported for this compound? C=CCc1cccc(OC)c1OCCCON1C(N)=NC(N)=NC1(C)C
[reply] -1

[ask] Which inhibition is reported for this compound? CCNc1cc(C(=O)N[C@@H](Cc2ccccc2)[C@H](O)CNC(C)(C)CSCC(C)C)cc(N2CCCC2=O)c1
[reply] -7

----------
- Protocol Notes: human hepatoma cell viability loss – ATP luminescence, cytotoxicity control for P. falciparum antimalarial project, primary screen (AID 2303);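 also: 0% = DMSO wells and 100% = digitonin-killed cells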
- Conditions Used: HepG2 viability, 24-48 h, at 10 µM, hits give high values
Here, each record is paired with measured inhibition data.
Value expressed in %; do not type the unit.

Please review the following examples before continuing.
[ask] Which inhibition is reported for this compound? c1ccc(CN2CCC(NCc3ccccc3-c3cccc(CNCc4ccc5c(c4)OCO5)c3)CC2)cc1
[reply] 37

[ask] Which inhibition is reported for this compound? CCC(C)OC(=O)C1=C(C)NC2=C(C(=O)CC(c3ccc(OC)c(OC)c3)C2)C1c1cccc(O)c1 (stereo not given)
[reply] -8

[ask] Which inhibition is reported for this compound? CCOc1c(OC)ccc2c1CCN(CCN1CCC(CNC(=O)c3ccc(-c4ccc(C#N)cc4)cc3)CC1)C2
[reply] 45

[ask] Which inhibition is reported for this compound? CSC1=NC2(CC(c3cccc(C)c3)c3cc(Cl)c(O)cc3O2)CC(C)(C)N1 (stereo not given)
[reply] 0

Could you now consider this next compound?
[ask] Which inhibition is reported for this compound? CCCC(CNCc1cccc(I)c1)CNc1cc(=O)c2ccccc2[nH]1 (stereo not given)
[reply] -3

----------
Here, each record is paired with measured inhibition data.
- Assay Target: L-lactate dehydrogenase (Plasmodium falciparum (isolate CDC / Honduras)) (UniProt Q27743)
- Protocol Notes: PfLDH activity inhibition – cell lysate, 3D7 strain, counter-screen for P. falciparum growth inhibition project (AID 2304);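 also: 0% = vehicle and 100% = reference inhibitor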
- Conditions Used: P. falciparum 3D7 crude extract, LDH APAD/NBT absorbance; at 2 µM; hits give high values
Value expressed in %; do not type the unit.

Please review the following examples before continuing.
[ask] Which inhibition is reported for this compound? CCCc1cc(Cc2cnc(N)nc2N)cc(CCC)c1OCCCCCC(=O)OCC
[reply] -1

[ask] Which inhibition is reported for this compound? C[C@H](Cc1ccc(C(=O)OCCOC(=O)c2ccc(C[C@@H](C)NC[C@H](O)c3cccc(C(F)(F)F)c3)cc2)cc1)NC[C@H](O)c1cccc(C(F)(F)F)c1
[reply] -4

[ask] Which inhibition is reported for this compound? COc1ccc2nccc(N3CCC(SCCNS(=O)(=O)c4ccc5c(c4)NC(=O)CS5)C3)c2n1 (centres undefined)
[reply] -5

[ask] Which inhibition is reported for this compound? CCOc1cc(C(=O)Nc2ccc3nc(N4CCCCC4)cc(C)c3c2)cc(OCC)c1OCC
[reply] -6

[ask] Which inhibition is reported for this compound? C[C@H](Nc1c(Nc2ccc3[nH]ccc3c2)c(=O)c1=O)C1CCCCC1
[reply] 6

Could you now consider this next compound?
[ask] Which inhibition is reported for this compound? Cn1cnc(CCNC(=O)c2cccc(-c3csc(-c4nc5ccccc5[nH]4)c3)c2)c1
[reply] 0

----------
- Protocol Notes: human hepatoma cell viability loss – ATP luminescence, cytotoxicity control for P. falciparum antimalarial project, primary screen (AID 2303);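 also: 0% = DMSO wells and 100% = digitonin-killed cells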
- Conditions Used: HepG2 viability, 24-48 h, at 10 µM, hits give high values
The label Y is reserved for inhibition strictly under 30%; N covers values equal to or above it.

Examples from the recorded data:
[ask] Does the reported inhibition of the following compound sit strictly below 30%? CCOc1cc2ncnc(Nc3ccc(OCc4ccccc4F)c(Cl)c3)c2cc1OCC
[reply] Y

[ask] Does the reported inhibition of the following compound sit strictly below 30%? N#Cc1ccc(-c2ccc(C(=O)NCCCCN3CCC(c4cc(Br)c5c(c4OCC(N)=O)CCCC5)CC3)cc2)cc1
[reply] Y

[ask] Does the reported inhibition of the following compound sit strictly below 30%? O=C(Nc1ccc(C(F)(F)F)cc1)c1ccc(NCCCN2CCCCCC2)c([N+](=O)[O-])c1
[reply] N

[ask] Does the reported inhibition of the following compound sit strictly below 30%? CCOC(=O)c1cn(CC)c2cc(OCc3ccccc3)ccc2c1=O
[reply] Y

[ask] Does the reported inhibition of the following compound sit strictly below 30%? O=C(Nc1cccc(CN2CCCN(Cc3ccccc3)CC2)c1)c1ccc(Cl)c(Cl)c1
[reply] Y

***
[ask] Does the reported inhibition of the following compound sit strictly below 30%? CCn1c(-c2nonc2N)nc2cnc(Oc3cccc(NC(=O)c4ccc(OCCN(C(C)C)C(C)C)cc4)c3)cc21
[reply] N

[ask] Does the reported inhibition of the following compound sit strictly below 30%? COc1ccc2nc(Nc3nc(-c4ccccn4)cs3)sc2c1
[reply] N

[ask] Does the reported inhibition of the following compound sit strictly below 30%? O=C(O)CNCC(O)c1ccccc1 (stereo not given)
[reply] Y

[ask] Does the reported inhibition of the following compound sit strictly below 30%? CCCCN(CCCC)CCCCNc1c2ccccc2nc2ccccc12
[reply] N

[ask] Does the reported inhibition of the following compound sit strictly below 30%? Cc1cccc(Cn2nc(-c3ccccc3)c(N3CCCCC3)cc2=O)c1
[reply] Y

----------
- Assay Target: Plasmodium falciparum protein kinase 6 (PK6, PF3D7_1337100)
- Protocol Notes: PfPK6 kinase inhibitors, biochemical, TCAMS library (AID 1159586)
- Conditions Used: recombinant PfPK6, Kinase-Glo ATP depletion luminescence
Results with a measured potency or affinity are listed apart. Active and inactive are the calls of the source. No rule for the calls is given here.
Value Type: outcome

Please review the following examples before continuing.
[ask] outcome of COC(=O)CCCCOc1c(OC)cc(Cc2cnc(N)nc2N)cc1OC on Plasmodium falciparum protein kinase 6 (PK6, PF3D7_1337100)?
[reply] inactive

[ask] outcome of CN(C)C(=NCCCCCCN=C(/N=C(/N)Nc1ccc(Cl)cc1)N(C)C)/N=C(/N)Nc1ccc(Cl)cc1 on Plasmodium falciparum protein kinase 6 (PK6, PF3D7_1337100)?
[reply] inactive

[ask] outcome of COc1ccc2nc3cc(Cl)ccc3c(NCCCCN3CCNCC3)c2c1 on Plasmodium falciparum protein kinase 6 (PK6, PF3D7_1337100)?
[reply] inactive

[ask] outcome of CN(C)c1ccc(-c2csc(C(=O)NCC3CCN(CC4CCCCC4)C3)c2)cc1 (centres undefined) on Plasmodium falciparum protein kinase 6 (PK6, PF3D7_1337100)?
[reply] inactive

[ask] outcome of Cc1ccc(-c2ccc(NC(=O)N3CCc4cc(Br)c(N5CCN(C)CC5)cc43)cc2)cn1 on Plasmodium falciparum protein kinase 6 (PK6, PF3D7_1337100)?
[reply] inactive

[ask] outcome of CN(CCCc1c[nH]c2ccccc12)CCC1CCC(NC(=O)/C=C/c2ccc(Cl)c(Cl)c2)CC1 (centres undefined) on Plasmodium falciparum protein kinase 6 (PK6, PF3D7_1337100)?
[reply] inactive

Could you now consider this next compound?
[ask] outcome of O=C(Nc1cccc(-c2cccc(-c3nc4ccc(F)cc4[nH]3)c2)c1)Nc1ccc2c(c1)OCO2 on Plasmodium falciparum protein kinase 6 (PK6, PF3D7_1337100)?
[reply] inactive

----------
- Assay Target: Calcium-dependent protein kinase 4 (Plasmodium falciparum (isolate 3D7)) (UniProt Q8IBS5)
- Sequence (Q8IBS5 whole entry, looked up): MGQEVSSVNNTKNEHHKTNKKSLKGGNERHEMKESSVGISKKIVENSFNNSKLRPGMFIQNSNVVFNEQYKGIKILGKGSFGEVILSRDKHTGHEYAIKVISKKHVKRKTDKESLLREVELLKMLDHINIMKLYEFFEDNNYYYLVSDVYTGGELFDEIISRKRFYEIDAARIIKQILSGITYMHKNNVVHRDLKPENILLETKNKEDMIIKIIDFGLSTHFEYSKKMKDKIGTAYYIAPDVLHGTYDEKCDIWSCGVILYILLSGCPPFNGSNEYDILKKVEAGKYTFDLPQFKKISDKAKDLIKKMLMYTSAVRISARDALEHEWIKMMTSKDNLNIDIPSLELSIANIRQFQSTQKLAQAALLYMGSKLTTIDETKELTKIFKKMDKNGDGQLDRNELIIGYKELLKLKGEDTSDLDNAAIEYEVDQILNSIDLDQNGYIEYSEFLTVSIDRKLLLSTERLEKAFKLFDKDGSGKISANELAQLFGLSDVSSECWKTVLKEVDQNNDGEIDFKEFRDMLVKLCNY
- Protocol Notes: PfCDPK4 kinase inhibitors, biochemical, TCAMS library (AID 1159588)
- Conditions Used: recombinant PfCDPK4, Kinase-Glo ATP depletion luminescence
Entries with a potency or affinity are not part of this list. Active and inactive are the calls of the source. No cut-off is given here; in the data, nearly all actives have IC50 up to about 0.91 µM.
Value Type: outcome

Please review the following examples before continuing.
[ask] Which outcome is reported for this compound? O=C(Nc1cc(F)cc(F)c1)N1CCOC(CCN2CCC3(CCc4ccccc43)CC2)(c2ccc(Cl)c(Cl)c2)C1 (stereo not given)
[reply] inactive

[ask] Which outcome is reported for this compound? Cc1cc(NC2CCCC2)nc(Nc2ccccc2)n1
[reply] inactive

[ask] Which outcome is reported for this compound? COc1ccc2nccc([C@@H](O)CN3CCC(NC(=O)/C=C/c4c[nH]c5c(C)cccc45)CC3)c2c1
[reply] inactive

[ask] Which outcome is reported for this compound? COc1cc(CNCCCCCCNCc2cc(OC)c(OC)c3ccccc23)c2ccccc2c1OC
[reply] inactive

[ask] Which outcome is reported for this compound? Cc1nn(C)c(C)c1CN(Cc1nc(-c2cccc(Oc3ccccc3)c2)oc1C)C1CC1
[reply] inactive

***
[ask] Which outcome is reported for this compound? CC(=O)Nc1cccc(CNc2cc(C)nc(Nc3ccc(C)cc3)n2)c1
[reply] inactive

[ask] Which outcome is reported for this compound? CCCCCCNc1cc(C)nc(/N=C(\N)Nc2cccc(C(F)(F)F)c2)n1
[reply] inactive

[ask] Which outcome is reported for this compound? c1cc(CNCC2CCCO2)cc(-c2csc(-c3nc4ccccc4[nH]3)c2)c1 (stereo not given)
[reply] inactive

[ask] Which outcome is reported for this compound? Cc1cccc2[nH]c(-c3cccc(-c4ccc(NC(=O)c5cnc[nH]5)cc4)c3)nc12
[reply] inactive

[ask] Which outcome is reported for this compound? CCOc1ccc(-c2nonc2NC(=O)c2ccccc2OC)cc1OCC
[reply] inactive
